- test target: T1, EsCas13d, nuclease-dead (Eubacterium siraeum, UniProt B0MS50, R295A;H300A;R849A;H854A)
- T1 sequence: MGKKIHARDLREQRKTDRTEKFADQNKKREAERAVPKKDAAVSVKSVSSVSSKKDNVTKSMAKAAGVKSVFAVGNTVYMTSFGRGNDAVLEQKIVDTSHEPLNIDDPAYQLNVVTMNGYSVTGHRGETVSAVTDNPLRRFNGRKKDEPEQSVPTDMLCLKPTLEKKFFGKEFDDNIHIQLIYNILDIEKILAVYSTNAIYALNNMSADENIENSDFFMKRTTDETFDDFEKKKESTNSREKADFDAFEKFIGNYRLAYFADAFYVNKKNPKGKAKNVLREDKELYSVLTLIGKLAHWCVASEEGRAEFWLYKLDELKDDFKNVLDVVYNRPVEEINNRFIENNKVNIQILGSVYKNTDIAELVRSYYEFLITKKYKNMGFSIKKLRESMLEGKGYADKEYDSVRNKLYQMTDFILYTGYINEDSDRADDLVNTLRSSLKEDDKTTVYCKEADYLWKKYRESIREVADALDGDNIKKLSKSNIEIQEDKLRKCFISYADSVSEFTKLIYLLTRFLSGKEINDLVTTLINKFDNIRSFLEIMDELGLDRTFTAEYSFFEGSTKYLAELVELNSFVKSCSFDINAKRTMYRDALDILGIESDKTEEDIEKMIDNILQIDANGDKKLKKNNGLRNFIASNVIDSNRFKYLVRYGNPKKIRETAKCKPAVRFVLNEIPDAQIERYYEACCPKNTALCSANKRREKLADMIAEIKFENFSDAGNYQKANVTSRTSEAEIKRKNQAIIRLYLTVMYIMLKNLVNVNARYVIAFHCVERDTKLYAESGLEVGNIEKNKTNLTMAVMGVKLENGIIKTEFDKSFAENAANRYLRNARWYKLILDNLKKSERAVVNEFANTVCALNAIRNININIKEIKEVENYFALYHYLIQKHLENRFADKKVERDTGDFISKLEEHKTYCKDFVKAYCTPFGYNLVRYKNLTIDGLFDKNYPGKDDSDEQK
- experimental details: crRNA (strand 1, pre-loaded); Mg2+; 40 mM Tris-HCl pH 7.5, 150 mM NaCl, 6 mM MgCl2, 1 mM DTT, 0.1% Tween-20, 0.2 mg/ml BSA; 25 C; 10 min per concentration, then washed
- condition set: tags: His6-TwinStrep-SUMO cleaved; N-terminal SNAP kept (SNAP-Surface 488); label: 3' end held by stalled T7 RNA polymerase
# Kd listing for each entry below
Don't forget the unit after the number, please.

Check out these entries, answers already filled in.
target 1 G5C,U11G (mixed) RNA 1: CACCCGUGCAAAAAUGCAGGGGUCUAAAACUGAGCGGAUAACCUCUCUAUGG RNA 2: GGGAAUGGAUCCACAUCUACGAAUUCGUACCAUAGAGAGGGUAUCCCCUCACCGAGAUCGGAAGAGCACACGU; 37 nM
target 1 MT 5'PFS CUU 3'PFS UUC (mixed) RNA 1: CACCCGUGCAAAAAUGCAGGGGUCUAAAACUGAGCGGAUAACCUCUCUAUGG RNA 2: GGGAAUGGAUCCACAUCUACGAAUUCCUUCCAUAGAGAGGUUAUCCGCUCAUUCAGAUCGGAAGAGCACACGU; 14.2 nM
target 1 MT 5'PFS CCG 3'PFS AUA (mixed) RNA 1: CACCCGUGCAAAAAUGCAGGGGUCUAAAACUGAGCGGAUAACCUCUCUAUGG RNA 2: GGGAAUGGAUCCACAUCUACGAAUUCCCGCCAUAGAGAGGUUAUCCGCUCAAUAAGAUCGGAAGAGCACACGU; 5.1 nM
target 1 G15A,U19A (mixed) RNA 1: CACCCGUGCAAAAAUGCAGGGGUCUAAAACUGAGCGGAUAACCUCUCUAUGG RNA 2: GGGAAUGGAUCCACAUCUACGAAUUCGUACCAAAGAAAGGUUAUCCGCUCACCGAGAUCGGAAGAGCACACGU; 60 nM
target 1 insG 3' of 3,insA 3' of 2 (mixed) RNA 1: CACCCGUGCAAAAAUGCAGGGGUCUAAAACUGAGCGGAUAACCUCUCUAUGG RNA 2: GGGAAUGGAUCCACAUCUACGAAUUCGUACCAUAGAGAGGUUAUCCGCUGCAACCGAGAUCGGAAGAGCACACGU; 6.5 nM

target 3 insC 3' of 11,insC 3' of 3 (mixed) RNA 1: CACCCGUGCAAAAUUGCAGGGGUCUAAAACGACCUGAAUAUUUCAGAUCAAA RNA 2: GGGAAUGGAUCCACAUCUACGAAUUCGUUUUUGAUCUGAAACUAUUCAGGCUCUGCAGAUCGGAAGAGCACACGU has a reported Kd of 50 nM

target 3 insA 3' of 21 (mixed) RNA 1: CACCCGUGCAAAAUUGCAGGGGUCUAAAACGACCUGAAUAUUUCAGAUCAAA RNA 2: GGGAAUGGAUCCACAUCUACGAAUUCGUUUUAUGAUCUGAAAUAUUCAGGUCUGCAGAUCGGAAGAGCACACGU has a reported Kd of 33.5 nM

target 1 insU 3' of 18,insG 3' of 7 (mixed) RNA 1: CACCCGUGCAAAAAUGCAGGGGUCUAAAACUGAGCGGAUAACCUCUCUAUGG RNA 2: GGGAAUGGAUCCACAUCUACGAAUUCGUACCAUAUGAGAGGUUAUCGCGCUCACCGAGAUCGGAAGAGCACACGU has a reported Kd of 25.5 nM
